These entries and their values trace back to PubChem BioAssay.

test-details: VP16 transactivation reporter inhibitors, counter-screen for LRH-1 inverse agonist project, cell-based, luminescence, high throughput (AID 651615)
settings: Gal4-VP16 luciferase reporter cells, at 3.6 µM, hits give high values
readout-type: inhibition (%)
Form entry: value (%) — number only.

1) CCCc1ccc(-c2ccc(/C=C/C(=O)O)cc2)nc1    68.6

Quick one: inhibition for `Cn1cnc([N+](=O)[O-])c1Oc1ccc2ccccc2c1` ?
10.8

And `Cc1nc2ccc(NC(=O)c3cc(S(=O)(=O)N(C)c4ccccc4)ccc3Cl)cc2s1` ?
47.6

Cool, now `COc1ccc(/C=C2/C(=O)OCc3cc(OC)c(OC)cc32)cc1`
23.4

And for `Cc1c(C(=O)Nc2ccc(Cc3ccncc3)cc2)cccc1[N+](=O)[O-]` ?
19.6

Also `CCCCCCCC[n+]1cccc2c3ccccc3ccc21` , if possible.
93.8

How about Oc1ccccc1-c1nc(NCC2CCCO2)c2ccccc2n1 (stereo not drawn) ?
-8

Note, next up: `O=C(Nc1cccc(S(=O)(=O)N2CCCCC2)c1)c1ccc([N+](=O)[O-])o1`
-4.21

// query: `O=C1C(SCCO)=C(SCCO)C(=O)c2ccccc21`
46.1

Please do the same for `COc1cc(/C=N/Nc2snc(SC)c2C#N)ccc1O` as well.
-90.8

Do the same for `COc1ccc(NC(=O)CSc2ncnc3[nH]ncc23)cc1` please
-6.96

And `COc1ccc(NC(=O)COc2cccc3c2CCN(C)C3=O)c(OC)c1` ?
-23.8

And the next one, CC1CC(=Cc2ccc(N)cc2)C(=O)O1 (stereo not drawn) ?
-23.5

What do you get for `CCCn1c(=NC(=O)CCS(=O)(=O)c2ccccc2)sc2cc(S(N)(=O)=O)ccc21` ?
-13.8

What do you get for `Cc1cc(Br)c(OCc2ccc(C(=O)N/N=C/c3ccc[nH]3)cc2)c(Br)c1` ?
85.5

Another: CCCCC(=O)NC(c1ccc(Cl)cc1)c1ccc2cccnc2c1O (stereo not drawn)
69.1

Also check `O=C(c1ccc([N+](=O)[O-])s1)N1CCN(c2ncccn2)CC1`
4.85

Quick one: O=C1CC(c2cccc([N+](=O)[O-])c2)c2ccc3ccccc3c2N1 (stereo not drawn)
9.31

Can you check `Cc1ccc(CN2CCC[C@]3(N[C@H](c4ccc(C(F)(F)F)cc4)[C@@H]4C(=O)N(Cc5ccccc5)C(=O)[C@@H]43)C2=O)cc1` next?
22

Then what about the compound `CN(C)CCNC(=O)c1cccc2nc3cccc(F)c3nc12` ?
55

And the next one, `COc1ccc(-c2coc3c(C(=O)NCc4ccc(OC)c(OC)c4)cccc23)c(C)c1` ?
57.8

// query: `O=C(NCCCc1ccccc1)c1cc([N+](=O)[O-])ccc1Cl`
-15.8

Proceed to `Cc1cc(S(=O)(=O)NCc2ccncc2)c(C)cc1Br`
41.4
